# System: Vero E6 infected with SARS-CoV-2
# measurement-notes: inhibition of SARS-CoV-2 cytopathic effect; higher = more antiviral protection, active = above 15
# measurement-context: 10000 nM; 48 h
Outcome codes: Yes for active, No for inactive

{"columns": ["compound", "target-desc", "class-assignment"],
 "data": [
  ["Oc1ccc(Cl)c2cccnc12", "Vero E6 infected with SARS-CoV-2", "No"],
  ["N#Cc1cnc2c(Cl)cc(NCc3cn(CCN4CCCCCC4)nn3)cc2c1Nc1ccc(F)c(Cl)c1", "Vero E6 infected with SARS-CoV-2", "No"],
  ["Oc1ccc(/C=C/c2cc(O)cc(O)c2)cc1", "Vero E6 infected with SARS-CoV-2", "No"],
  ["CC(C)(Sc1ccncc1-c1ccc(C#N)c2ccccc12)C(=O)O", "Vero E6 infected with SARS-CoV-2", "No"],
  ["CCOc1c(N2CCOCC2)cnn(C)c1=O", "Vero E6 infected with SARS-CoV-2", "No"],
  ["CN(C)NC(=O)CCC(=O)O [daminozide]", "Vero E6 infected with SARS-CoV-2", "No"],
  ["CC(C)(C)c1ccc(C(=O)Nc2cn3cc(-n4ccnc4)ccc3n2)cc1", "Vero E6 infected with SARS-CoV-2", "No"],
  ["C[C@@H](N)c1ccc(C(=O)Nc2ccnc3[nH]ccc23)cc1", "Vero E6 infected with SARS-CoV-2", "No"],
  ["Clc1cc(Cl)c(OCC#CI)cc1Cl", "Vero E6 infected with SARS-CoV-2", "Yes"],
  ["CCC1(c2ccc(N)cc2)CCC(=O)NC1=O (stereo not given) [aminoglutethimide]", "Vero E6 infected with SARS-CoV-2", "No"]
]}

====

# System: Vero E6 infected with SARS-CoV-2
# measurement-notes: morphology score (similarity to uninfected cells); higher = more like uninfected cells
# measurement-context: 24 h
Assign Y whenever morphology score does not fall below 0.1; assign N whenever it does.

{"columns": ["compound", "target-desc", "class-assignment"],
 "data": [
  ["Clc1ccc(C(Cn2ccnc2)OCc2csc3c(Cl)cccc23)c(Cl)c1 (stereo unspecified) [sertaconazole] (10 µM)", "Vero E6 infected with SARS-CoV-2", "Y"],
  ["N[C@H](C(=O)O)c1ccc(O)c(C(=O)O)c1 [3-carboxy-4-hydroxyphenylglycine-(S)] (10 µM)", "Vero E6 infected with SARS-CoV-2", "Y"],
  ["O=C1c2ccccc2C(=O)C1c1ccccc1 [phenindione] (10 µM)", "Vero E6 infected with SARS-CoV-2", "N"],
  ["OCc1cncc(F)c1 [5-fluoro-3-pyridyl-methanol] (10 µM)", "Vero E6 infected with SARS-CoV-2", "Y"],
  ["CN(C)[C@@H]1CCc2[nH]c3ccc(NC(=O)c4ccc(F)cc4)cc3c2C1 (10 µM)", "Vero E6 infected with SARS-CoV-2", "Y"],
  ["CCCc1c(OCCCOc2ccc(OCC(=O)O)cc2)ccc(C(C)=O)c1O (10 µM)", "Vero E6 infected with SARS-CoV-2", "N"],
  ["O=P(O)(O)CN(CCN(CP(=O)(O)O)CP(=O)(O)O)CP(=O)(O)O (10 µM)", "Vero E6 infected with SARS-CoV-2", "Y"],
  ["S=C(NCCc1ccccn1)Nc1ccc(Br)cn1 [trovirdine] (10 µM)", "Vero E6 infected with SARS-CoV-2", "N"],
  ["COc1ccc(-c2sc(NC(=O)C(C)(C)C)nc2C)cc1S(=O)(=O)Nc1ccc(O)cc1 [PI4KIII-beta-inhibitor-1] (10 µM)", "Vero E6 infected with SARS-CoV-2", "Y"],
  ["Cc1oc2ccccc2c1CNC(=O)NCc1cccs1 (10 µM)", "Vero E6 infected with SARS-CoV-2", "N"],
  ["Cc1cc(-c2nc(-c3ccc(OC(F)(F)F)cc3)no2)nn1Cc1ccnc(N2CCN(C3CC3)CC2)c1 (10 µM)", "Vero E6 infected with SARS-CoV-2", "N"],
  ["c1cc(-c2sc(-c3ccncc3)c(-c3ccncc3)c2-c2ccncc2)ccn1 (10 µM)", "Vero E6 infected with SARS-CoV-2", "N"],
  ["CCC(N)C(O)c1ccc(O)c(O)c1 (stereo unspecified) [ethylnorepinephrine] (10 µM)", "Vero E6 infected with SARS-CoV-2", "N"],
  ["CN(CCOc1ccc(CC2SC(=O)NC2=O)cc1)c1ccccn1 (stereo unspecified) [rosiglitazone] (10 µM)", "Vero E6 infected with SARS-CoV-2", "Y"],
  ["O=c1[nH]c2cc(C(F)(F)F)c(N3CCOCC3)cc2n(CP(=O)(O)O)c1=O (10 µM)", "Vero E6 infected with SARS-CoV-2", "Y"],
  ["Cc1cccc(-c2[nH]c(CNc3ccccc3F)nc2-c2ccc3ncnn3c2)n1 (10 µM)", "Vero E6 infected with SARS-CoV-2", "Y"],
  ["Cc1[nH]c(/C=C2\\C(=O)Nc3ccc(F)cc32)c(C)c1C(=O)NCCN1CCCC1 [toceranib] (0.833333 µM)", "Vero E6 infected with SARS-CoV-2", "N"],
  ["Cn1c(=O)c2c(ncn2CC(=O)O)n(C)c1=O [acefylline] (10 µM)", "Vero E6 infected with SARS-CoV-2", "Y"],
  ["CC1(C)CCC(C)(C)c2cc(C3(c4ccc5cc(C(=O)O)ccc5c4)SCCS3)ccc21 (10 µM)", "Vero E6 infected with SARS-CoV-2", "Y"],
  ["Cc1cc(C)cc(C(=O)NOCCCCCC(=O)NO)c1 (10 µM)", "Vero E6 infected with SARS-CoV-2", "N"],
  ["CC(C)(C)C(=O)NCCCC(=O)O [pivagabine] (10 µM)", "Vero E6 infected with SARS-CoV-2", "N"],
  ["COC(=O)c1cnn(-c2ccc(F)cc2F)c1/C=N/NC(=S)NC(C)(C)C (10 µM)", "Vero E6 infected with SARS-CoV-2", "Y"],
  ["Cn1nc(-c2cccc(F)c2)n(C)c1=S [suritozole] (10 µM)", "Vero E6 infected with SARS-CoV-2", "Y"],
  ["CC[C@H](C)[C@H](N)C1=N[C@H](C(=O)N[C@@H](CC(C)C)C(=O)N[C@H](CCC(=O)[O-])C(=O)N[C@H](C(=O)N[C@H]2CCCCNC(=O)[C@H](CC(N)=O)NC(=O)[C@@H](CC(=O)[O-])NC(=O)[C@H](Cc3cnc[nH]3)NC(=O)[C@@H](Cc3ccccc3)NC(=O)[C@H]([C@@H](C)CC)NC(=O)[C@@H](CCCN)NC2=O)[C@@H](C)CC)CS1.[Zn+2] [bacitracin-zinc] (10 µM)", "Vero E6 infected with SARS-CoV-2", "N"],
  ["O=C(O[C@H]1[C@H](OC(=O)c2cccnc2)[C@@H](OC(=O)c2cccnc2)[C@H](OC(=O)c2cccnc2)[C@@H](OC(=O)c2cccnc2)[C@H]1OC(=O)c1cccnc1)c1cccnc1 [inositol-hexanicotinate] (10 µM)", "Vero E6 infected with SARS-CoV-2", "N"],
  ["CCN(CC)CCCCNc1ncc2cc(-c3cc(OC)cc(OC)c3)c(NC(=O)NC(C)(C)C)nc2n1 (0.833333 µM)", "Vero E6 infected with SARS-CoV-2", "Y"],
  ["C[C@@H]1CN(c2c(F)c(F)c3c(=O)c(C(=O)O)cn(C4CC4)c3c2F)C[C@H](C)N1 [orbifloxacin] (10 µM)", "Vero E6 infected with SARS-CoV-2", "Y"],
  ["C/C=C/C=C/C(=O)O [sorbic-acid] (10 µM)", "Vero E6 infected with SARS-CoV-2", "N"],
  ["CCc1nc2c(C)nc(C)cc2n1-c1ccc(CCNC(=O)NS(=O)(=O)c2ccc(C)cc2)cc1 [grapiprant] (10 µM)", "Vero E6 infected with SARS-CoV-2", "Y"],
  ["COc1cccc2c1C(=O)c1c(O)c3c(c(O)c1C2=O)C[C@@](O)(C(=O)CO)C[C@@H]3O[C@H]1C[C@H](N)[C@H](O[C@@H]2CCCCO2)[C@H](C)O1 [pirarubicin] (10 µM)", "Vero E6 infected with SARS-CoV-2", "N"],
  ["O=c1[nH]c2ccc(Cl)cc2c(N[C@@H]2CN3CCC2CC3)c1-c1nc2ccccc2[nH]1 (10 µM)", "Vero E6 infected with SARS-CoV-2", "N"]
]}

The origin of these recorded values is the supplement of paper PMC13380429.
